Readings of pIC50 for the listed compounds
# tested target: PARG (Homo sapiens, UniProt Q86W56)
# Sequence (Q86W56 whole entry): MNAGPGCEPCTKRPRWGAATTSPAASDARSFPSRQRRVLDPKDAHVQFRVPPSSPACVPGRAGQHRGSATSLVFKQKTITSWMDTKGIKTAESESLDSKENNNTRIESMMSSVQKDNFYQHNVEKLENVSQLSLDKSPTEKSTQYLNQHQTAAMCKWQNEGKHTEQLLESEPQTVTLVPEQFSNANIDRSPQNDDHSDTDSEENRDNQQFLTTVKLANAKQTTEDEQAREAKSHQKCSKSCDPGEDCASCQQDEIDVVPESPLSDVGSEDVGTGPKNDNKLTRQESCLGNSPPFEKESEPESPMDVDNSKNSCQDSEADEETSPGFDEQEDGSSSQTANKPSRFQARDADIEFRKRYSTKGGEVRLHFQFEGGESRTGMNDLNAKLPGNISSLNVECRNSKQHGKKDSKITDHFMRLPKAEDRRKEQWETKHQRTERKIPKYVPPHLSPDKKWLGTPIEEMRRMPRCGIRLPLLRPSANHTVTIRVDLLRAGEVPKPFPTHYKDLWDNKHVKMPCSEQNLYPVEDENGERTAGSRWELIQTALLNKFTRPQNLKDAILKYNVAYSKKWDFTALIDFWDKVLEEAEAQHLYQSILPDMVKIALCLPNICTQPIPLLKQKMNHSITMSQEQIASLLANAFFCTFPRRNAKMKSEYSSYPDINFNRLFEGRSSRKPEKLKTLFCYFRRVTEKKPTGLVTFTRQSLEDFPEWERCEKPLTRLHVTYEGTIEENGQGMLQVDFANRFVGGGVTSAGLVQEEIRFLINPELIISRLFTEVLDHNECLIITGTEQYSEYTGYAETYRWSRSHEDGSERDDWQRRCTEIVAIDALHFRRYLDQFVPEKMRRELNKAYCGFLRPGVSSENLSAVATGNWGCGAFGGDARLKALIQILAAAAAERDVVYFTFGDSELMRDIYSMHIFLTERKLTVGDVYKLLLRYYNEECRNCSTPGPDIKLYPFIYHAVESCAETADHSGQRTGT
# measurement protocol: Inhibition of PARG enzymatic assay (TR-FRET enzymatic IC50 assay)
# Assay type: biochemical
# Set-up: purchased Peak Proteins
# protocol conditions: hPARG 250 pM, biotinylated-PARylated PARP substrate 30 nM
pIC50: −log10 of the molar value.

// solved cases for pIC50 follow
>>> value("N#CC1(NS(=O)(=O)c2cc(N3CCS(=O)(=O)CC3)c3cnn(-c4nnc(C(F)F)s4)c3c2)CC1 [Example 52]")
"≥ 7.00"
>>> value("CC(=O)N1CCN(c2cc(S(=O)(=O)NC3(C#N)CC3)cc3c2cnn3-c2nnc(C(F)F)s2)CC1 [Example 50]")
"≥ 7.00"
>>> value("N#CC1(NS(=O)(=O)c2cc(N3CC4COCC(C3)N4)c3cnn(-c4nnc(C(F)F)s4)c3c2)CC1 [Example 70]")
"6.52 to 7.00"
>>> value("Cc1ccncc1N1CCN(c2cc(S(=O)(=O)NC3(C#N)CC3)cc3c2cnn3-c2nnc(C(F)F)s2)CC1 [Example 84]")
"6.00 to 6.52"
>>> value("N#CC1(NS(=O)(=O)c2cc(N3CCC(F)(F)CC3)c3cnn(-c4nnc(C(F)F)s4)c3c2)CC1 [Example 105]")
"5.00 to 6.00"

The reported value for COc1nccc(-c2cc(S(=O)(=O)NC3(C#N)CC3)cc3c2cnn3-c2nnc(C(F)F)s2)n1 [Example 21] in terms of pIC50 is 6.52 to 7.00

Notebook: N#CC1(NS(=O)(=O)c2cc(N3CCN4C(=O)CC[C@@H]4C3)c3cnn(-c4nnc(C(F)F)s4)c3c2)CC1 [Example 60] , pIC50 read as ≥ 7.00

From: patent US20220389003A1
